target: T1, recombinant mouse CTLA-4 protein (mouse, UniProt P09793 36-161); test: SPR (Pioneer FE) or Octet (Red96e), 37 C; IgG captured by anti-human Fc or AHC sensor, mCTLA-4 as analyte
T1 construct: Recombinant protein used as analyte in SPR/Octet; also called murine CTLA-4; mCTLA-4
READOUT KIND: Kd (nM)
Report only the number, with the unit nM understood.

IgG antibody 78-8D4 HC / 78-8 LC (antibody, V domains shown) VH: EVQLVESGGGLVQPGGSLRLSCAASGFTFSSYVMHWVRQAPGKGLEWVSAITWSGGGTYYADSVKGRFTISRDNSKNTLYLQMNSLRAEDTAVYYCARGRLFGLVRYGEAFDVWGQGTLVTVSS VL: DIQMTQSPSSLSASVGDRVTITCQASKDISNYLNWYQQKPGKAPKLLIYDASNLETGVPSRFSGSGSGTDFTFTISSLQPEDIATYYCQQFNSFPLTFGQGTKVEIKR	0.27

Form field: reported Kd of IgG antibody 78-24D22V HC / 78-24 LC (antibody, V domains shown) VH: EVQLVESGGGLVQPGGSLRLSCAASGFTFPSYSMHWVRQAPGKGLEWVSGISGSGWSTSYADSVKGRFTISRDNSKNTLYLQMNSLRAEDTAVYYCARDLMAFNLVRAGGFDVWGQGTLVTVSS VL: DIQMTQSPSSLSASVGDRVTITCQASQDISNYLNWYQQKPGKAPKLLIYDASNLETGVPSRFSGSGSGTDFTFTISSLQPEDIATYYCQQGDAWPWTFGQGTKVEIKR
0.27

Return reported Kd; argument: IgG antibody 78-8D2 HC / 78-8 LC (antibody, V domains shown) VH: EVQLVESGGGLVQPGGSLRLSCAASGFTFSSYVMHWVRQAPGKGLEWVSAITWSGRGTYYADSVKGRFTISRDNSKNTLYLQMNSLRAEDTAVYYCARGRLFGLALYGEAFDVWGQGTLVTVSS VL: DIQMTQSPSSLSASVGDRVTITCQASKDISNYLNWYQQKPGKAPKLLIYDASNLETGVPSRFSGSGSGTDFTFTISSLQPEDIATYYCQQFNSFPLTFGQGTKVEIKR
0.4

Which Kd value belongs to IgG antibody 78-24D17V HC / 78-24 LC (antibody, V domains shown) VH: EVQLVESGGGLVQPGGSLRLSCAASGFTFSSSSMHWVRQAPGKGLEWVSGISGSGGSTSYADSVKGRFTISRDNSKNTLYLQMNSLRAEDTAVYYCARYLMSFNLVRTSWFDVWGQGTLVTVSS VL: DIQMTQSPSSLSASVGDRVTITCQASQDISNYLNWYQQKPGKAPKLLIYDASNLETGVPSRFSGSGSGTDFTFTISSLQPEDIATYYCQQGDAWPWTFGQGTKVEIKR ?
0.33
